Please provide measured SPOT peptide array binding signal intensity for the entries that follow.
# Test target: AgSla1-D3
# Experiment: SPOT peptide array binding signal intensity (averaged, normalized) (arbitrary units (background-subtracted, floor 0; scale differs between SH3 domains)); higher = stronger binding of the SH3 domain to the peptide

Record `VQKRKLPLPGSIASA` . Reported SPOT peptide array binding signal intensity: ≤ 0

Record `RRSKSLPITPKSIFN` . Reported SPOT peptide array binding signal intensity: ≤ 0

Record `STKKPRPPVKSKPKH` . Reported SPOT peptide array binding signal intensity: ≤ 0

meta.source: the supplement of paper PMC4466140
